Entries and their TM Shift LIMK1 (K) values follow.
# TEST_TARGET: LIMK1KD (Homo sapiens, UniProt P53667)
# Construct: His6 (N, cleaved yes); made in house; host or cells: baculovirus; Sf9 for virus, TriEx insect cells for expression
# Sequence (P53667 330-637): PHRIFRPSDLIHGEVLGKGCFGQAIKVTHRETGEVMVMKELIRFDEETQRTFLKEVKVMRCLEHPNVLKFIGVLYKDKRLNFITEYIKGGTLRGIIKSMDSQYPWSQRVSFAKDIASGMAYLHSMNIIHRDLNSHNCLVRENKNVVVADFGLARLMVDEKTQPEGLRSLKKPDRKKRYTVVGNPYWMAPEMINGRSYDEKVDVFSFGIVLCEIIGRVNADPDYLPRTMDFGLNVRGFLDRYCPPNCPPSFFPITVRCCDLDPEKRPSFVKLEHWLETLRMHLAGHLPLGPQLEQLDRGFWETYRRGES
# TEST_METHOD_NOTES: Differential (dynamic) scanning fluorimetry (DSF) assay, LIMK1KD
# Assay type: binding
# EXPERIMENTAL_PARAMETERS: 2 µM LIMK1KD, compound 10 µM, single shot
Report the figure in K without appending any unit label.

Solved cases below.
- COMPOUND: "Cc1cc(C)nc(NS(=O)(=O)c2ccc(NC(=S)NC(=O)COc3ccc(Br)cc3Cl)cc2)n1 [ZCL278]"
  TM Shift LIMK1 (K): -1.0
- COMPOUND: "O=C1NC(=O)C(=Cc2ccc(-c3ccc(F)cc3)o2)S1 (stereo in doubt) [CAY10505]"
  TM Shift LIMK1 (K): 0.7

Q. Which measured TM Shift LIMK1 (K) belongs to CC(C)(C)c1nc(-c2cccc(NS(=O)(=O)c3c(F)cccc3F)c2F)c(-c2ccnc(N)n2)s1 [Dabrafenib (GSK2118436), Dabrafenib] , tested on LIMK1KD (Homo sapiens, UniProt P53667)?
A. 10

Q. Find the measured TM Shift LIMK1 (K): item CCN1/C(=C/C(C)=O)Sc2ccc(OC)cc21 [TG003] , target or system LIMK1KD (Homo sapiens, UniProt P53667).
A. -1.0
